Overview of reported Mean % Suppression across a group of molecules:
tested on: plasmodium berghei; assay: suppression of parasitemia in mice infected with plasmodium berghei; assay type: in vivo; settings: mice, s.c., .50 mg/kg on days 1-3; 6th day
Structures can show the parent of a compound that is named as a salt.

molecule | measuredOn | Mean % Suppression
CCCNC(=O)NC(=N)Nc1c(Cl)cccc1Cl [Compound A] | plasmodium berghei | 41.9%
Cc1cccc(C)c1NC(=O)NC(=N)NC(C)C.Cl [Compound E] | plasmodium berghei | 20.4%
CNC(=N)NC(=O)Nc1c(C)cc(Br)cc1Cl.Cl [Compound C] | plasmodium berghei | 24.7%
CNC(=N)NC(=O)Nc1c(C)cccc1Br [Compound B, hydrochloride] | plasmodium berghei | 37.6%
CCCN=C(NC)NC(=O)Nc1c(C)cccc1C [Compound D, hydrochloride] | plasmodium berghei | 21.5%

* * *

test system: plasmodium berghei; test: suppression of parasitemia in mice infected with plasmodium berghei; format: in vivo; conditions: mice, s.c., 2.0 mg/kg on days 1-3; 6th day
Structures can show the parent of a compound that is named as a salt.

compound | unitsLabel | Mean % Suppression
CCCN=C(NC)NC(=O)Nc1c(C)cccc1C [Compound D, hydrochloride] | % | 48.4
CCCNC(=O)NC(=N)Nc1c(Cl)cccc1Cl | % | 59.1
CNC(=N)NC(=O)Nc1c(C)cccc1Br [Compound B, hydrochloride] | % | 51.6
CNC(=N)NC(=O)Nc1c(C)cc(Br)cc1Cl.Cl | % | 56.0
Cc1cccc(C)c1NC(=O)NC(=N)NC(C)C.Cl | % | 55.9

* * *

tested on: plasmodium berghei; assay: suppression of parasitemia in mice infected with plasmodium berghei; type: in vivo; settings: Plasmodium berghei, sc, 120 h; mice, s.c.; levels of parasitemia, 5th day; read-out: SED50 (Suppressant Effective Dose50)
Counter-ions that a name gives are not always drawn.
attributeMeasured: ED50

compound | attributeMeasured | result
Cc1cccc(C)c1NC(=O)NC(=N)NC(C)C.Cl [Compound E] | ED50 | 1.52 mg/kg
CCCN=C(NC)NC(=O)Nc1c(C)cccc1C [Compound D, hydrochloride] | ED50 | 1.91 mg/kg
CNC(=N)NC(=O)Nc1c(C)cccc1Br [Compound B, hydrochloride] | ED50 | 1.87 mg/kg
CNC(=N)NC(=O)Nc1c(C)cc(Br)cc1Cl.Cl [Compound C] | ED50 | 1.12 mg/kg
CCCNC(=O)NC(=N)Nc1c(Cl)cccc1Cl [Compound A] | ED50 | 1.2 mg/kg

* * *

Overview of reported % died across a group of compounds:
test system: plasmodium berghei; assay: suppression of parasitemia in mice infected with plasmodium berghei; format: in vivo; conditions: mice, s.c., 2.0 mg/kg on days 1-3; 14th day
Counter-ions that a name gives are not always drawn.

compound | measuredOn | % died [%]
Cc1cccc(C)c1NC(=O)NC(=N)NC(C)C.Cl [Compound E] | plasmodium berghei | 40
CNC(=N)NC(=O)Nc1c(C)cccc1Br [Compound B, hydrochloride] | plasmodium berghei | 20
CCCN=C(NC)NC(=O)Nc1c(C)cccc1C [Compound D, hydrochloride] | plasmodium berghei | 20
CCCNC(=O)NC(=N)Nc1c(Cl)cccc1Cl [Compound A] | plasmodium berghei | 20
CNC(=N)NC(=O)Nc1c(C)cc(Br)cc1Cl.Cl [Compound C] | plasmodium berghei | 40
